Molecular target: T1, hGDF11 homodimer (human, UniProt O95390 299-407)
T1 sequence (looked up): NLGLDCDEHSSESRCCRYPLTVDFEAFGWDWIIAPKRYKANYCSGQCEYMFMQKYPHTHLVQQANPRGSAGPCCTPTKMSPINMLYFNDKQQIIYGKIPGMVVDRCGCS
Assay: cell-based or functional assay
Form field: IC50, GDF11-inducible luciferase, A204/Smad2 cells, 0.8 nM GDF11 (one value per entry).
Report only the number, with the unit nM understood.

{"binder": "21-B9 (antibody, V domains shown) VH: QVQLVQSGPGLVKPSETLSLTCTVSGGSISNSNYYWGWIRQPPGKGLEWIGTTYYSGTTYYNPSLKSRVTISVDTSKNQFSLKLSSVTAADTAVYYCARDYYDSSGYYYNWFDPWGQGTTVTVSS VL: DIQLTQSPSSLSASVGDRVTITCRASQDIRNDLGWYQQKPGKAPKRLIYAASSLQSGVPSRFSGSGSGTEFSLTLSSLQPEDFATYFCLQHHIYPWTFGQGTKLEIKR", "reported": 1.2}

Note: attention shifts to another entry.
Task: Which value of IC50, GDF11-inducible luciferase, A204/Smad2 cells, 0.8 nM GDF11 has been reported for 1A2 (antibody, V domains shown, also called 1A2 mAb) VH: EVQLLESGGGLVQPGGSLRLSCAASGFTSITYAMSWVRQAPGKGLEWVSAISVSGTNTYYADSVKGRFTISRDKSKNMLYLQMNSLRAEDTAVYYCAKDLLHNWKYGTFDIWGQGTMVTVSS VL: EIVMTQSPATLSVSPGERATLSCRASQSVDSNLVWYQQKPGQVPRLLIYGASTRATGIPARFSGSGSGTEFTLTISSLQSEDFAVYYCQQYNKWPLTFGGGTKVEIK in the records?
Output: 1400
